Attribution: ChEMBL document CHEMBL3885861

# Species on record: Rattus norvegicus
# ASSAY METHOD TEXT: Open TG-GATES - Regimen: Single
# Assay type: toxicity, organism-based, Sprague-Dawley
# Set-up: regimen Single, gender Male, age 6 weeks
# RUN PARAMETERS: in vivo, po, 0 mg/kg, 24 h, tissue Plasma, route gavage, dose level Control
ASSAY METRIC: RALB (g/dL)
# number only, unit g/dL dropped from output

Request: Can you share its RALB? I mean this compound: CN(C)C(=N)N=C(N)N
Response: 2.6

Request: Queued: CC[C@H]1[C@@H]2C[C@H]3[C@@H]4N(C)c5ccccc5[C@]45C[C@@H]([C@@H]2[C@H]5O)N3[C@@H]1O
Response: 3.6

Request: Queued: ClC(Cl)(Cl)Cl [CARBON TETRACHLORIDE]
Response: 3.5

Request: Queued: O=NN1CCOCC1
Response: 2.9

Request: Queued: CCc1oc2ccccc2c1C(=O)c1cc(Br)c(O)c(Br)c1
Response: 4

Request: Queued: CCC1(c2ccccc2)C(=O)NC(=O)NC1=O
Response: 3.4

Request: Queued: O=NN(CCCl)C(=O)NC1CCCCC1
Response: 3.9

Request: Queued: CC1=C(CC(=O)O)c2cc(F)ccc2/C1=C\c1ccc([S+](C)[O-])cc1 (stereo unspecified)
Response: 2.7

Request: Queued: CN(C)CCC=C1c2ccccc2COc2ccccc21 [DOXEPIN]
Response: 2.5

Request: Queued: OCCOCCN1CCN(C(c2ccccc2)c2ccc(Cl)cc2)CC1 (stereo unspecified) [HYDROXYZINE]
Response: 2.6

Request: Queued: CC(C)N(CCC(C(N)=O)(c1ccccc1)c1ccccn1)C(C)C (stereo unspecified) [DISOPYRAMIDE]
Response: 3
